assay: LAP4-GFP expression modulators in yeast, confirmation, cell-based, cherry picks, flow cytometry, mother/daughter gates (AID 2271);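 further: ratio of sample to DMSO plate mean so 100% equals DMSO level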; details: S. cerevisiae LAP4-GFP strain, 3 h, measured here: mother cell gate response, at 10 µM, stronger effect = higher value, 100 means same as DMSO control
MEASURED ENDPOINT: GFP response relative to DMSO (%)
Answers are plain numbers, in %.

>>> reported("CCN(CC)S(=O)(=O)c1cccc(C(=O)NCC(c2ccccc2)N(C)C)c1 (stereo unspecified)")
106
>>> reported("CC(=O)c1sc(NC(=O)c2ccco2)nc1-c1ccccc1")
108
>>> reported("C/C(=N\\NC(=O)c1c(Br)c(C)nn1C)c1cccc(NC(=O)C2CCC2)c1")
101
>>> reported("COc1cc(/C=C2\\N=C(c3c(-c4ccccc4)noc3C)OC2=O)ccc1OC(C)=O")
89.7

Quick one: give me GFP response relative to DMSO for each item below, same order please.
1. Cc1cc(NCCN2CCOCC2)n2nc(C)c(-c3ccc(Cl)cc3)c2n1
2. CCOC(=O)c1ccc(NC(=O)CCc2nc(-c3ccc(Cl)cc3)no2)cc1
3. CC(C)c1nnc(-c2ccc(Cl)cc2)c(N(C)C)n1
4. CCNC(=O)c1c(O)c2cccc3c2n(c1=O)CC3
5. CN1CC(=O)NC1=NC(=O)C12CC3CC(CC(C3)C1)C2
6. CC[n+]1c(/C=C/c2ccc(N(C)C)cc2)ccc2ccccc21
7. COc1ccc(S(=O)(=O)N2CCC(O)(c3ccc(Cl)cc3)CC2)cc1

Result string:
[109, 100, 99.5, 105, 103, 106, 97.2]
